Assay: MTT cell viability / cytotoxicity in Vero E6 cells
Details: African green monkey, Cytotoxicity (Vero E6) (IC50, μM), Vero E6 cells, MTT test
Binarize IC50 at 50 µM; below is YES, at or above is NO.

[[record]]
compound = "CC1=NN(c2ccc(Cl)cc2)C(=O)/C1=C\\c1ccc(OCc2cn(CC(=O)Nc3ccc([N+](=O)[O-])cc3)nn2)cc1"
discrete_label = "YES"


Take the compound CC1=NN(c2ccc(Cl)cc2)C(=O)/C1=C\c1ccc(OCc2cn(CC(=O)Nc3ccc(C(=O)O)cc3)nn2)cc1 and say whether its IC50 is less than 50 µM.
YES

Identify whether the compound CC1=NN(c2ccc(Cl)cc2)C(=O)/C1=C\c1ccc(OCc2cn(-c3ccc(Cl)c(Cl)c3)nn2)cc1 records IC50 below 50 µM.
NO

Does this compound meet the criterion IC50 < 50 µM? CC1=NN(c2ccc(Cl)cc2)C(=O)/C1=C\c1ccc(OCc2cn(-c3ccc(C(=O)O)cc3)nn2)cc1
YES

is_below(IC50, 50 µM) for CC1=NN(c2ccc(Cl)cc2)C(=O)/C1=C\c1ccc(OCc2cn(CC(=O)Nc3ccc(C)c(F)c3)nn2)cc1 ?
NO

Take the compound CC(C)CC(NC(=O)OCc1ccccc1)C(=O)NC(CC1CCNC1=O)C(O)S(=O)(=O)O (stereo not shown) [GC-376, reference compound] and say whether its IC50 is less than 50 µM.
YES

Please check: IC50 for COc1ccc(CNC(=O)Cn2cc(COc3ccc(/C=C4\C(=O)N(c5ccc(Cl)cc5)N=C4C)cc3)nn2)cc1 , strictly under 50 µM or not?
YES

A record lists CC1=NN(c2ccc(Cl)cc2)C(=O)/C1=C\c1ccc(OCc2cn(-c3ccc(C)c(F)c3)nn2)cc1 . Is its IC50 below 50 µM?
YES

Does the reported IC50 of CC1=NN(c2ccc(Cl)cc2)C(=O)/C1=C\c1ccc(OCc2cn(-c3ccc([N+](=O)[O-])cc3)nn2)cc1 stay below 50 µM?
NO

IC50 strictly < 50 µM for this compound? CC1=NN(c2ccc(Cl)cc2)C(=O)/C1=C\c1ccc(OCc2cn(CC(=O)NCc3ccc(C)cc3)nn2)cc1
NO

Where these numbers come from: paper PMC10051656
